Attribute: TGI
system: CCRF-CEM leukemia; experiment: NCI tumour cell line growth inhibition, 48 h
*1 amine or outer side, *2 acyl side, *3 side chain or, on linkers, in order; H or OH if unused. Where a SMILES comes first, the peptide text is derived from it. Bridges are numbered along the chain shown (N, C = ends). Roman numbers before positions name the chains, in order. [ ]: non-standard residue; d: D form. Actinocin(9to1) = Cc1c2oc3c(C)ccc(C(=O)[*:1])c3nc-2c(C(=O)[*:2])c(N)c1=O; NMeV = CN[CH](C(=O)O)C(C)C; Sar = CNCC(=O)O

See these solved cases before continuing.
COMPOUND: Nc1nc2c(c(-c3ccccc3Cl)n1)COC/C2=C\c1ccccc1Cl
TEST RESULT: 32.8 µM

COMPOUND: CSc1c2c(C)n[nH]c2nn1-c1ccccc1
TEST RESULT: > 100 µM

Prompt: Give recorded TGI. "C[C@@H](NC(=O)[C@@H]1C[C@]1(C)CO)c1cccc2ccccc12"
Completion: > 100 µM

Prompt: Give recorded TGI. "CC(C)(C)c1ccc(O)c(C(c2ccc([N+](=O)[O-])cc2)c2cc(C(C)(C)C)ccc2O)c1"
Completion: 7.53 µM

Prompt: Give recorded TGI. Cc1c2oc3c(C)ccc(C(=O)OC(C)C4NC(=O)C(C(C)C)N(C)C(=O)CN(C)C(=O)C5CCCN5C(=O)C(C(C)C)NC4=O)c3nc-2c(C(=O)OC(C)C2NC(=O)C(C(C)C)N(C)C(=O)CN(C)C(=O)C3CCCN3C(=O)C(C(C)C)NC2=O)c(N)c1=O (centres undefined) (I: cyclo([Sar][NMeV]TVP) / II: cyclo([Sar][NMeV]TVP); linker I:3-II:3 via Actinocin(9to1); configuration not given here)
Completion: > 66.3 µM

Prompt: Give recorded TGI. Cc1c(N)nc([C@H](CC(N)=O)NC[C@H](N)C(N)=O)nc1C(=O)N[C@H](C(=O)N[C@H](C)[C@@H](O)CC(=O)N[C@H](C(=O)NC(O[C@@H]1O[C@@H](C)[C@@H](N)[C@@H](O)[C@H]1O)C(O)c1nc(-c2nc(C(=O)NCCCCN)cs2)cs1)[C@@H](C)O)[C@@H](O[C@@H]1O[C@@H](CO)[C@@H](O)[C@H](O)[C@@H]1O[C@H]1O[C@H](CO)[C@@H](O)[C@H](OC(N)=O)[C@@H]1O)c1c[nH]cn1 (some centres undefined)
Completion: > 50 µM

Prompt: Give recorded TGI. COC1(OC)C2(Cl)C(Cl)=C(Cl)C1(Cl)C1c3ccc(C(C)=O)c4cccc(c34)C12 (centres undefined)
Completion: > 79.2 µM

Prompt: Give recorded TGI. "Cc1ccc2[nH]c3c(c2c1)N=c1ccccc1=NO3"
Completion: > 100 µM

Prompt: Give recorded TGI. "Nc1ncnc2c1sc(=S)n2-c1ccccc1"
Completion: > 100 µM

Prompt: Give recorded TGI. "COc1cccc(Sc2ccc([N+](=O)[O-])c3no[n+]([O-])c23)c1"
Completion: 8.14 µM

Prompt: Give recorded TGI. "O=C1NC(=O)[C@@]2(CC[C@@H](O)C2)c2ccncc21"
Completion: > 100 µM

Prompt: Give recorded TGI. COC1=CC(=O)C2C(C1=O)[C@@H]1c3ccccc3OC(C)(C)[C@H]21 (some centres undefined)
Completion: 65.1 µM
